Let's look at some molecules and their measured cell viability.
- Tested on: Caco-2
- assayNotes: cell viability relative to DMSO; higher = less toxic
- statedConditions: 72 h; 1 nM
Write the value in % as a bare number.

Clc1cccc2c1CN(C1=NCCN1)C2; 100
CCC(C)(C)c1ccc(CC(C)CN2C[C@@H](C)O[C@@H](C)C2)cc1 (some centres undefined); 86
C[C@@H]1CC[C@@]2(OC1)O[C@H]1C[C@H]3[C@@H]4CC=C5C[C@@H](O)CC[C@]5(C)[C@H]4CC[C@]3(C)[C@H]1[C@@H]2C; 105

Request: Give the measured cell viability of CC(CN1c2ccccc2Sc2ccccc21)N(C)C (centres undefined) .
Response: 99.8

Request: "CCCCCCCCCCCCCC[C@@H](O)[C@@H](O)[C@@H](N)CO" , same question.
Response: 115

Request: N#C/C(=C1/SCC(c2ccccc2Cl)S1)n1ccnc1 (centres undefined) , same question.
Response: 96.6

Request: CC(=O)Oc1cc2c(s1)CCN(C(C(=O)C1CC1)c1ccccc1F)C2 (centres undefined) , same question.
Response: 102

Request: "Cn1c(=O)c2c(ncn2CC(=O)O)n(C)c1=O" , same question.
Response: 102

Request: c1cc(CN2CCCCC2)cc(OCCCNc2nc3ccccc3s2)c1 [zolantidine] , same question.
Response: 104

====

Let's look at some compounds and their measured cell viability.
- Test system: HepG2
- assayNotes: cell viability relative to DMSO; higher = less toxic
- statedConditions: 72 h; 10 nM
Write the value in % as a bare number.

Solved cases (2 shown):
Oc1cc(O)c2c(c1)O[C@H](c1ccc(O)c(O)c1)[C@@H](O)C2 [cianidanol]; 99.8
c1ccc(-c2n[nH]c3c2oc2ccccc23)cc1; 106

Request: Give the measured cell viability of COc1c(-c2ccc3cc(NS(C)(=O)=O)ccc3c2)cc(-n2ccc(=O)[nH]c2=O)cc1C(C)(C)C [dasabuvir] .
Response: 102

Request: O=C1NCCN1CCN1CCC(c2cn(-c3ccc(F)cc3)c3ccc(Cl)cc23)CC1 [sertindole] , same question.
Response: 105

Request: CC(=O)N[C@@H](CCC(N)=O)C(=O)O [aceglutamide] , same question.
Response: 89.7

Request: Cc1cc(C)c(/C=C2\C(=O)Nc3ccccc32)[nH]1 [semaxanib] , same question.
Response: 96.2

====

- Tested on: Calu-3
- assayNotes: cell viability relative to DMSO; higher = less toxic
- statedConditions: 72 h; 100 nM
readoutLabel: cell viability (%)
Write the value in % as a bare number.

Solved cases (5 shown):
CN(C)C(=O)CCSC(SCCC(=O)O)c1cccc(/C=C/c2ccc3ccc(Cl)cc3n2)c1 (centres undefined) [MK-571]; 101
Cc1cc(Nc2cc(C)c(C#N)c(N[C@@H](C)CCCC(C)(C)O)n2)n[nH]1 [TC-A-2317]; 84.7
CO/N=C(\C(=O)N[C@@H]1C(=O)N2C(C(=O)O)=C(CSc3nc(=O)c(O)nn3C)CS[C@H]12)c1csc(N)n1 [ceftriaxone]; 95.2
CC(C)n1nnc2cc(C(=O)O)ccc21 [IBC-293]; 100
COc1nc(C)cnc1NS(=O)(=O)c1cccnc1-c1ccc(-c2nnco2)cc1 [zibotentan]; 98.9

Request: Give the measured cell viability of "Clc1cccc2c1CN(C1=NCCN1)C2" .
Response: 109

Request: "O=C(N[C@H]1CN2CCC1CC2)c1ccc2c(c1)OCCO2" , same question.
Response: 102

Request: Oc1cc(O)c2c(c1)O[C@H](c1ccc(O)c(O)c1)[C@@H](O)C2 [cianidanol] , same question.
Response: 97.4

Request: Cc1cc(C)c(/C=C2\C(=O)Nc3ccccc32)[nH]1 [semaxanib] , same question.
Response: 93.6

Where do the numbers come from? From the supplement of paper PMC13380429.
